For each of the compounds below, state its PRE Application IPOHE herbicidal damage (five point scale).
System: Ipomoea hederacea (IPOHE)
assay remarks: Pre-emergence herbicidal glasshouse test on Ipomoea hederacea
Assay type: in vivo
conditions used: pre-emergence; 1000 g/h; evaluated after 13 days

A selection of reference data follows.
compound	observed
Cn1ncc(-c2ccc(Br)cc2S(C)(=O)=O)c(O)c1=O	2 (2=20-39% damage)
Cc1cccc(-c2c(C(F)(F)F)ccn(-c3cnn(C)c(=O)c3O)c2=O)c1	1 (1=0-19% damage)
Cc1cc(Cl)ccc1-c1c(C(F)(F)F)ccn(-c2cnn(C)c(=O)c2O)c1=O	4 (4=60-79% damage)
Cc1ccc(-c2c(C(F)(F)F)ccn(-c3cnn(C)c(=O)c3O)c2=O)cc1[N+](=O)[O-]	1 (1=0-19% damage)
CCCS(=O)(=O)Oc1c(-c2ccc(C(F)(F)F)cc2S(C)(=O)=O)cnn(C)c1=O	4 (4=60-79% damage)

Record PRE Application IPOHE herbicidal damage (five point scale) per entry; entries follow.
1. Cn1ncc(-c2cccn(CC(F)(F)F)c2=O)c(O)c1=O
2. Cn1ncc(-n2ccc(C(F)(F)F)c(-c3cccc(OC(F)(F)F)c3)c2=O)c(O)c1=O
3. CC(C)[S+]([O-])c1ccccc1-c1cnn(C)c(=O)c1O (stereo not shown)
4. CC[S+]([O-])c1ccccc1-c1cnn(COC)c(=O)c1O (stereo not shown)
5. Cn1ncc(-c2ccc(SCc3ccccc3)cc2S(C)(=O)=O)c(O)c1=O
6. Cc1ccc(F)cc1-c1cnn(C)c(=O)c1O
7. Cc1c(-c2c(C#N)nn(C)c(=O)c2O)ccc(S(C)(=O)=O)c1C1=NOCC1
8. CC(C)OCc1ccc(-c2cnn(C)c(=O)c2O)c(S(C)(=O)=O)c1

Reply:
1 (1=0-19% damage)
1 (1=0-19% damage)
1 (1=0-19% damage)
1 (1=0-19% damage)
3 (3=40-59% damage)
1 (1=0-19% damage)
5 (5=80-100% damage)
2 (2=20-39% damage)

====

System: Amaranthus retoflexus (AMARE)
assay remarks: Pre-emergence herbicidal glasshouse test on Amaranthus retoflexus
Format: in vivo
conditions used: pre-emergence; 1000 g/h; evaluated after 13 days
Would you kindly list PRE Application AMARE herbicidal damage (five point scale) for each of these compounds?

Solved cases below.
compound structure	study system	observed
CN(Cc1nc(C(F)(F)F)ccc1-c1cnn(C)c(=O)c1O)S(C)(=O)=O	Amaranthus retoflexus (AMARE)	5 (5=80-100% damage)
Cn1ncc(-c2ccc(C(F)(F)F)nc2N2CCOCC2)c(O)c1=O	Amaranthus retoflexus (AMARE)	5 (5=80-100% damage)
Cn1ncc(-n2ccc(C(F)(F)F)cc2=O)c(O)c1=O	Amaranthus retoflexus (AMARE)	5 (5=80-100% damage)
Cn1ncc(-c2ccc(C(F)(F)F)nc2S(C)(=O)=O)c(O)c1=O	Amaranthus retoflexus (AMARE)	5 (5=80-100% damage)

For the 3 compounds below, give their PRE Application AMARE herbicidal damage (five point scale) values.
1. Cn1ncc(-c2ccccc2Cl)c(O)c1=O
2. COc1cc(-c2c(C(F)(F)F)ccn(-c3cnn(C)c(=O)c3O)c2=O)cc(OC)c1OC
3. Cn1ncc(-c2ccc(S(C)(=O)=O)c(O)c2Cl)c(O)c1=O

Reply:
1. 1 (1=0-19% damage)
2. 5 (5=80-100% damage)
3. 1 (1=0-19% damage)

Can you give me PRE Application AMARE herbicidal damage (five point scale) for all of these, one by one?
1. Cn1ncc(-c2ccc([N+](=O)[O-])cc2S(C)(=O)=O)c(O)c1=O
2. CS(=O)(=O)c1cc(C(F)(F)F)ccc1-c1cnn(C2CC2)c(=O)c1O

Reply:
1. 5 (5=80-100% damage)
2. 5 (5=80-100% damage)
